- measured_target: AEBS (Homo sapiens, UniProt Q15125+Q9UBM7)
- Sequence (Q15125 whole entry): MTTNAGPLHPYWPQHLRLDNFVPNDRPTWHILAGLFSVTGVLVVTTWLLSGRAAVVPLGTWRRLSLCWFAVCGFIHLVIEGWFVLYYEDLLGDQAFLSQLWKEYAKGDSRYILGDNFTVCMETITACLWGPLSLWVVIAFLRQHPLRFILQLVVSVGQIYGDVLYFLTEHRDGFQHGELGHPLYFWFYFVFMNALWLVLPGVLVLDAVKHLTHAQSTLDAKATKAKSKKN
- Sequence (Q9UBM7 whole entry): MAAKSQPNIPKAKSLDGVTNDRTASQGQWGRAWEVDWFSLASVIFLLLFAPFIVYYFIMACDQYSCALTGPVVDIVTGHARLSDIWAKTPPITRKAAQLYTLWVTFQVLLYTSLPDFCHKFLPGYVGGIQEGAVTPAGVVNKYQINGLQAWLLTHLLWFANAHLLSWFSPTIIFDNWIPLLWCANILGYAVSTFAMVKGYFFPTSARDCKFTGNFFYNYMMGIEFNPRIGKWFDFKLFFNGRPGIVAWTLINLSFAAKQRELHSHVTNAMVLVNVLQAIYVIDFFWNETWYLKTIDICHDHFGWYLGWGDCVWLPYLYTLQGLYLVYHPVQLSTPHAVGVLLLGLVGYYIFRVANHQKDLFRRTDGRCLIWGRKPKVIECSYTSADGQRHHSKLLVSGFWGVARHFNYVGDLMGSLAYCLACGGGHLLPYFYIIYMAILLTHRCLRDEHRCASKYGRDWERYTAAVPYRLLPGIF
- assay_text: Binding to the AEBS in LP1
- Set-up: endogenous in cells; host or cells: LP-1 human multiple myeloma cell lines
observable: Ki

Look over these answered cases.
1. C[C@]12C[C@H](c3ccc(OCCCCCS(=O)(=O)CCCC(F)(F)C(F)(F)F)cc3)[C@@H]3c4ccc(O)cc4CC[C@H]3[C@@H]1CC[C@@H]2O [RU 58668]: > 10000 nM
2. CN(C)CCOc1ccc([C@H]2C[C@]3(C)[C@@H](O)CC[C@H]3[C@@H]3CCc4cc(O)ccc4[C@H]32)cc1 [RU 39411]: 27.4 nM

Item under review: Cl.c1ccc(Cc2ccc(OCCN3CCCC3)cc2)cc1 [PBPE] . Reported Ki?
3.2 nM
